tested_target: APOL1 G1 (Homo sapiens, UniProt O14791, I384M/S342G)
Sequence (O14791 28-398 S342G/I384M): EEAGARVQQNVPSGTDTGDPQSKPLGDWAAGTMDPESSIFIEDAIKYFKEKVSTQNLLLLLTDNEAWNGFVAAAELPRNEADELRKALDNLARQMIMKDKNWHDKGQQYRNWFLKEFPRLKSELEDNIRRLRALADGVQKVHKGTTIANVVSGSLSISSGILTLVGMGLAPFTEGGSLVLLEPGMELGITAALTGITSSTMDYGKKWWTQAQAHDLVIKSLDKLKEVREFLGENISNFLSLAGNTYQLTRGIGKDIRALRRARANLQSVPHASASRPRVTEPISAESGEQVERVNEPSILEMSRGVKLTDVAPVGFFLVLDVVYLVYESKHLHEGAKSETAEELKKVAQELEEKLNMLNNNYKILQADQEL
assay_details: MultiTox-Fluor Multiplex Cytotoxicity Assay, tet-inducible APOL1 G1 T-REx-HEK293 cells
Format: cell-based
Design: expressed in transfected cells; host or cells: T-REx HEK293, clone G1 DC3.25 (pAAVS1-Puro-APOL1 G1)
settings: HEK293, Multi-Tox Assay; APOL1 variant (G0/G1/G2) of the HEK293 cells not given; read-out: Multi-Tox Assay IC90
Procedure: The MultiTox-Fluor Multiplex Cytotoxicity Assay is a single-reagent-addition, homogeneous, fluorescence assay that measures the number of live and dead cells simultaneously in culture wells. […] The live-cell protease activity is restricted to intact viable cells and is measured using a fluorogenic, cell-permeant peptide glycyl-phenylalanylamino fluorocoumarin (GF-AFC) substrate. […] Assay ready plates from the Global Compound Archive were ordered using template 384_APOL1Cell_DR10n2_50uM_v3. […]
value_type: IC90

Consider the worked cases shown below.
>  <compound>
C[C@H]1C[C@@]2(C[C@@H](c3cn(CC(F)F)nn3)N1)OCC(F)(F)c1cc(Cl)sc12

>  <IC90>
> 500 nM

$$$$
>  <compound>
CNC(=O)c1cccc(C2CC3(CC(C)N2)OCCc2cc(Cl)sc23)c1 (stereo not drawn)

>  <IC90>
< 50 nM

$$$$
>  <compound>
C[C@H]1C[C@@]2(C[C@@H](c3cnc4n3CCOC4)N1)OCCc1cc(Cl)sc12 (racemic)

>  <IC90>
> 500 nM

$$$$

Entry Cc1cncc([C@@H]2C[C@]3(C[C@H](C)N2)OCCc2cc(Cl)sc23)c1 (racemic) has what IC90? < 50 nM

I'd like to know its IC90. The compound in question is C[C@H]1C[C@@]2(C[C@@H](c3cnc(N4CCN(C)CC4)nc3)N1)OCCc1cc(Cl)sc12 (racemic) 50 to 500 nM

Quick one: IC90 for C[C@H]1C[C@@]2(C[C@@H](c3c[nH]cn3)N1)OCCc1cc(Cl)sc12 (racemic) ? < 50 nM

Which IC90 is listed for C[C@H]1C[C@@]2(C[C@@H](c3cnn4c3OCCC4)N1)OCCc1cc(Cl)sc12 (racemic) ? > 500 nM

What IC90 value was documented for this compound, C[C@H]1C[C@@]2(C[C@@H](c3cn(CCO)nn3)N1)OC[C@@H](O)c1cc(Cl)sc12 ? 50 to 500 nM
